measurement target: F876L mutant Androgen Receptor (AR-F876L) (Homo sapiens (Human), UniProt P10275, F877L)
Sequence (P10275 whole entry F877L): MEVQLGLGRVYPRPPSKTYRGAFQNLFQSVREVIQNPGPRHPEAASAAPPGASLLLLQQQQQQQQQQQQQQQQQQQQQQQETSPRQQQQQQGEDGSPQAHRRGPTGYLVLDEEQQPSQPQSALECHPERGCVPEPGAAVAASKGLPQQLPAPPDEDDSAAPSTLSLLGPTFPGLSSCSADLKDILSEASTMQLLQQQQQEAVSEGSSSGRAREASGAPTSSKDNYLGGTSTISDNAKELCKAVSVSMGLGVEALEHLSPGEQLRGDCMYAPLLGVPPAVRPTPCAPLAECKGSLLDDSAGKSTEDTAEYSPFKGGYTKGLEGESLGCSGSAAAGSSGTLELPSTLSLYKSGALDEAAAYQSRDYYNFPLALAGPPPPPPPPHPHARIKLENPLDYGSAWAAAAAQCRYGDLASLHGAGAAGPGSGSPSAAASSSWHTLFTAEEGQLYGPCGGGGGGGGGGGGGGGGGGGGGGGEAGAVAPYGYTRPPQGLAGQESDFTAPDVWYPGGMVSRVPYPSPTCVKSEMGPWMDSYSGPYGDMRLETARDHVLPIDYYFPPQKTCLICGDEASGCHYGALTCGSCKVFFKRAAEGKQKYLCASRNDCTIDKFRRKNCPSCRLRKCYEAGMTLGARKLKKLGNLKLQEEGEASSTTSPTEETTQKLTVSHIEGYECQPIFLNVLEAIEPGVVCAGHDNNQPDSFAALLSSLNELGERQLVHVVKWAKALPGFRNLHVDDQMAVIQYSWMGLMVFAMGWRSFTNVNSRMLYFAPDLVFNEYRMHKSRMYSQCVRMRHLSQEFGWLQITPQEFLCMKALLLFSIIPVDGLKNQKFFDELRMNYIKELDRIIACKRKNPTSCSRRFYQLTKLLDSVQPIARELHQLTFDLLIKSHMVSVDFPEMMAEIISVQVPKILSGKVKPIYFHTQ
test details: LNCaP-AR-F876L AG reporter assay (agonist mode)
Format: cell-based
experimental parameters: maximum % stimulation (agonist response) over the tested concentration range; read-out: LNCaP-AR-F876L AG MAX % Stim
measured parameter: Emax (%)

For orientation, consider the following solved cases.
N#Cc1ncc(N2C(=O)C3(CCC3)N(c3ccc(OC4CCN(CCCF)CC4)cc3)C2=S)cc1C(F)(F)F    0.2
N#Cc1ncc(N2C(=O)C3(CCC3)N(c3ccc(OC4CCNCC4(F)F)cc3)C2=S)cc1C(F)(F)F (racemic)    0.3
CC(=O)N1CC(F)(F)CC1COc1ccc(N2C(=S)N(c3cnc(C#N)c(C(F)(F)F)c3)C(=O)C23CCC3)cc1 (centres unmarked)    0.5
CN1CC[C@@H](Oc2ccc(N3C(=S)N(c4cnc(C#N)c(C(F)(F)F)c4)C(=O)C34CCC4)cc2)C[C@H]1C(F)(F)F (racemic)    2.3
CN1CCC(CNC(=O)c2ccc(N3C(=S)N(c4cnc(C#N)c(C(F)(F)F)c4)C(=O)C34CCC4)cc2)CC1    0

a. N#Cc1ncc(N2C(=O)C3(CCC3)N(c3ccc4nn(CCO)cc4c3)C2=S)cc1Cl
b. CNC(=O)Cc1ccc(N2C(=S)N(c3cnc(C#N)c(C)c3)C(=O)C23CCC3)cc1
c. C=CCN1CCC(Oc2ccc(N3C(=S)N(c4cnc(C#N)c(C)c4)C(=O)C34CCC4)cn2)CC1
d. N#Cc1ncc(N2C(=O)C3(CCC3)N(c3ccc(O[C@@H]4CCN[C@H](C(F)(F)F)C4)cc3)C2=S)cc1C(F)(F)F (racemic)
Order the items by recorded Emax; the first position goes to the largest value. Record the ranking as a list of labels in the requested order.
d, c, a, b
